Test system: human Factor XI mRNA
procedure-summary: Antisense inhibition in HepG2 cells by microwalk gapmers, 8,000 nM, electroporation (Example 14)
Assay type: cell-based
experimental-parameters: HepG2 cells, 8,000 nM
In the oligonucleotide strings, read from the 5' end, every base follows the letter of its sugar. An asterisk marks phosphorothioate; unmarked linkages are phosphodiester. Other units and linkages are bracketed, terminal groups are in braces. A string of capitals states the bases alone. e = 2'-O-(2-methoxyethyl) (MOE); [5mC] = 5-methylcytosine; d = 2'-deoxy (DNA)
observable: Percent inhibition of human Factor XI mRNA levels (%)
Numeric only. Scale: %

Record summary for 416864 (antisense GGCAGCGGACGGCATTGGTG; 5-10-5 gapmer, wing sugar chemistry not given here, further chemistry not given here) [compound 416864] : reported Percent inhibition of human Factor XI mRNA levels = 88

Record summary for 416863 (antisense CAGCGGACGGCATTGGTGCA; 5-10-5 gapmer, wing sugar chemistry not given here, further chemistry not given here) [compound 416863] : reported Percent inhibition of human Factor XI mRNA levels = 86

Record summary for 416853 (antisense eT*eT*eG*eG*eT*dG*d[5mC]*dA*d[5mC]*dA*dG*dT*dT*dT*d[5mC]*eT*eG*eG*e[5mC]*eA) [compound 416853] : reported Percent inhibition of human Factor XI mRNA levels = 84

Record summary for 445499 (antisense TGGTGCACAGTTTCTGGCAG; 6-8-6 gapmer chemistry, chemistry not fully specified) [compound 445499] : reported Percent inhibition of human Factor XI mRNA levels = 75

Record summary for 445501 (antisense ATTGGTGCACAGTTTCTGGC; 6-8-6 gapmer chemistry, chemistry not fully specified) [compound 445501] : reported Percent inhibition of human Factor XI mRNA levels = 83

Record summary for 445517 (antisense eA*e[5mC]*eT*eG*eG*e[5mC]*dA*dG*d[5mC]*dG*dG*dA*d[5mC]*dG*eG*e[5mC]*eA*eT*eT*eG) [compound 445517] : reported Percent inhibition of human Factor XI mRNA levels = 74

Record summary for 445497 (antisense GTGCACAGTTTCTGGCAGGC; 6-8-6 gapmer chemistry, chemistry not fully specified) [compound 445497] : reported Percent inhibition of human Factor XI mRNA levels = 81

Record summary for 416854 (antisense eA*eT*eT*eG*eG*dT*dG*d[5mC]*dA*d[5mC]*dA*dG*dT*dT*dT*e[5mC]*eT*eG*eG*e[5mC]) [compound 416854] : reported Percent inhibition of human Factor XI mRNA levels = 86

Record summary for 445525 (antisense eG*eG*eT*eG*e[5mC]*dA*d[5mC]*dA*dG*dT*dT*dT*d[5mC]*eT*eG*eG*e[5mC]*eA) [compound 445525] : reported Percent inhibition of human Factor XI mRNA levels = 85

Record summary for 416860 (antisense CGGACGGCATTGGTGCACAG; 5-10-5 gapmer, wing sugar chemistry not given here, further chemistry not given here) [compound 416860] : reported Percent inhibition of human Factor XI mRNA levels = 89

Record summary for 445512 (antisense e[5mC]*eA*eG*e[5mC]*eG*eG*dA*d[5mC]*dG*dG*d[5mC]*dA*dT*dT*eG*eG*eT*eG*e[5mC]*eA) [compound 445512] : reported Percent inhibition of human Factor XI mRNA levels = 79
